target: Recombinant Human ENPP-2/Autotaxin (Homo sapiens, UniProt Q13822); assay: LysoPLD activity measurement (autotaxin enzyme inhibition, choline release, TOOS reagent); settings: LysoPLD inhibitory activity; substrate 14:0 LysoPC; absorbance at 555 nm
pIC50: −log10 of the molar value.
Readout type: pIC50

// known answers, use as guide
INSERT INTO results (molecule, observed_value) VALUES
  ('O=C(O)c1cccc(C2(n3c(=O)n(-c4ccc(-c5nnc(C6CCC(F)(F)CC6)o5)cc4)c4cc(Cl)ccc43)CC2)c1 [Example 138]', '> 8.00'),
  ('O=C(O)c1cccc(C2(n3c(=O)n(-c4ccc(N5CCOCC5)cc4)c4cc(C(F)(F)F)ccc43)CC2)c1 [Example 207]', '> 8.00'),
  ('CCCc1ccc(-n2c(=O)n(C3(c4cccc(C(=O)O)c4)CC3)c3ccc(Cl)cc32)cc1 [Example 31]', '7.00 to 8.00'),
  ('O=C(O)c1cccc(C2(n3c(=O)n(-c4ccc(C5=CCOCC5)cc4)c4cc(Cl)ccc43)CC2)c1 [Example 121]', '> 8.00'),
  ('O=C(O)c1cccc(C2(n3c(=O)n(-c4ccc(C(=O)N5CC(O)C5)cc4)c4cc(Cl)ccc43)CC2)c1F [Example 134]', '> 8.00');

// sample CN(C)C(=O)c1ccc(-n2c(=O)n(C3(c4cccc(C(=O)O)c4)CCC3)c3ccc(Cl)cc32)cc1 [Example 157] , its pIC50 was > 8.00

// sample O=C(O)c1cccc(Cn2c(=O)n(-c3ccc(C4=CCOCC4)cc3)c3cc(Cl)ccc32)c1 [Example 104] , its pIC50 was 7.00 to 8.00
